Data origin, for the record: PubChem BioAssay (NCATS)

# TARGET OR TEST SYSTEM: 3',5'-cyclic-AMP phosphodiesterase 4B (Homo sapiens)
# EXPERIMENT NOTES: qHTS Assay for Inhibitors of PDE-IV (AID 607)
# CONDITION SET: HEK293 ACTOne CNG channel cells, membrane potential fluorescence; series mostly up to 22.9 µM
Records with an inconclusive call do not appear. Calls of active or inactive are those of the source. The call rests on the fitted dose curve; in most records, active means well fitted activation curve with a large enough effect in the main read-out, with a control signal flat (not every such curve was filed as active); inconclusive means small, poorly fitted or top-dose-only effect, or effect the other way, or a change in a side signal; inactive means flat fitted curve, though single readings scatter.
RECORDED ENDPOINT: outcome

NC(N)=NCCCCN=C(N)N; inactive
CCOC(=O)NNc1nncc2ccccc12; inactive
O=C1NC(c2cccc([N+](=O)[O-])c2)=CCN1c1ccccc1O; inactive
CN(C)c1cc2c(Nc3ccc4c(cnn4Cc4ccccc4)c3)ncnc2cn1; inactive
Clc1ccc2c(c1)N=C(N1CCNCC1)c1ccccc1N2; inactive
O=C(O)/C=C(\CC(=O)O)C(=O)O; inactive

stdin: Would you mind telling me what outcome value was observed for Brc1ccc([C@H]2CN3CCSC3=N2)cc1 ?
stdout: inactive

stdin: Would you mind telling me what outcome value was observed for COc1ccccc1N1CCN(CCN2C(=O)CC3(CCCC3)CC2=O)CC1 ?
stdout: inactive
